# TARGET_ENTITY: Poly [ADP-ribose] polymerase 1 (Homo sapiens, UniProt P09874)
# Sequence (P09874 whole entry): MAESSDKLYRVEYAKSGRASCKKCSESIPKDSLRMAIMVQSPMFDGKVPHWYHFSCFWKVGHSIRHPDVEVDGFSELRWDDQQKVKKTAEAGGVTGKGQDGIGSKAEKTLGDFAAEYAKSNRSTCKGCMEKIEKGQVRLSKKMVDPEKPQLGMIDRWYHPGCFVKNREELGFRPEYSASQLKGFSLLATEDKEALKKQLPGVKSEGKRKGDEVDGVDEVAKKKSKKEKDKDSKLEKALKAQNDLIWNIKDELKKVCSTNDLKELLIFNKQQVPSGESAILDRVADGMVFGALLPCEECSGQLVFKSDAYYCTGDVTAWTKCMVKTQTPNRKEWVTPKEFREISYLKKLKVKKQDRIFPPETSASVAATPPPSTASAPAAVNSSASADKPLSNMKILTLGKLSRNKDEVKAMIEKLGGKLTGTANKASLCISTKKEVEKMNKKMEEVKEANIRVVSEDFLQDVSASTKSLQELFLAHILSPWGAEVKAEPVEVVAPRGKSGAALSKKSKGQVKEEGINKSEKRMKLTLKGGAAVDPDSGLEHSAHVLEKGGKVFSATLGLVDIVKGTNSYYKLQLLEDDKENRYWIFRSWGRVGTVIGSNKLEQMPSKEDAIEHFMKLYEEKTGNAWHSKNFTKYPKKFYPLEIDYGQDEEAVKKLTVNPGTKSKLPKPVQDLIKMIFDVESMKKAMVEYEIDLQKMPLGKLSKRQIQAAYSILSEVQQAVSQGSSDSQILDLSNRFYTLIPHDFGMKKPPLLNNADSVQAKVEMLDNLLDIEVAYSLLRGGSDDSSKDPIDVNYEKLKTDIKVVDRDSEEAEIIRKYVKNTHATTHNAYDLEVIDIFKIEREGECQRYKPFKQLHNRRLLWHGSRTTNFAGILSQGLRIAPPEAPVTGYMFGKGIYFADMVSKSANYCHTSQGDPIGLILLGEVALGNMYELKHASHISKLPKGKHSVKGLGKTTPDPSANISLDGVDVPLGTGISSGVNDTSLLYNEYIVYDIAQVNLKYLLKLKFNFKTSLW
# MEASUREMENT_CONDITIONS: dose 10.0 nM, time 45.0 min
PROPERTY_MEASURED: inhibition (%)

// below: answered compounds
{"SMILES_REPRESENTATION": "O=C(Nc1ccc(F)cc1)c1ccc(NC(=O)N2CCN(C(=O)c3cc(Cc4n[nH]c(=O)c5ccccc45)ccc3F)CC2)cc1", "PROPERTY_MEASURED": "inhibition", "MEASURED_NUMBER": 89}
{"SMILES_REPRESENTATION": "COc1ccc(NC(=O)c2ccc(NC(=O)N3CCN(C(=O)c4cc(Cc5n[nH]c(=O)c6ccccc56)ccc4F)CC3)cc2)cc1", "PROPERTY_MEASURED": "inhibition", "MEASURED_NUMBER": 97}
{"SMILES_REPRESENTATION": "Cc1cccc(NC(=O)c2ccc(NC(=O)N3CCN(C(=O)c4cc(Cc5n[nH]c(=O)c6ccccc56)ccc4F)CC3)cc2)c1", "PROPERTY_MEASURED": "inhibition", "MEASURED_NUMBER": 99}

I = COc1ccc(NC(=O)C2CCN(CC(=O)N3CCN(C(=O)c4cc(Cc5n[nH]c(=O)c6ccccc56)ccc4F)CC3)CC2)cc1
II = COc1ccc(NC(=O)c2ccc(NC(=O)N3CCN(C(=O)c4cc5cccc(C(N)=O)c5o4)CC3)cc2)cc1
**Query** Identify the entry with the smaller inhibition: I or II . Respond with the label that goes with your answer.
**Result** II
(II: 51.5%, I: 98%)
